Molecular target: 3-phosphoinositide-dependent protein kinase 1 (Homo sapiens)
Sequence (O15530 whole entry): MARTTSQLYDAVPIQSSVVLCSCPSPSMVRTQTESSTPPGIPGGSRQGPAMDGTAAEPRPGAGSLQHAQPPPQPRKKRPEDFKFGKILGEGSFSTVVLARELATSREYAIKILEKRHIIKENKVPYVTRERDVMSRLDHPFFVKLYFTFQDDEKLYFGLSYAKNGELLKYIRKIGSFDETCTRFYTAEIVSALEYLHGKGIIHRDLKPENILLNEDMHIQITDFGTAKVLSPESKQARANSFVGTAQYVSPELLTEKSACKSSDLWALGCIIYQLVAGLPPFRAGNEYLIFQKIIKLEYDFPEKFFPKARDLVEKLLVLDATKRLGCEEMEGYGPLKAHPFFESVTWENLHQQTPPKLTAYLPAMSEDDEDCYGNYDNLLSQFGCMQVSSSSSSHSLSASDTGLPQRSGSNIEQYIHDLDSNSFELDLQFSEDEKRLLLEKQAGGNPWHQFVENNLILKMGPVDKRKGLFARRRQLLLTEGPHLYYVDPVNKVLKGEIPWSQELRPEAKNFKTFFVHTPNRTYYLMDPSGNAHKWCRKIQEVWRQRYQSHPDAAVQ
Assay: Binding affinity to PDK1 (50 to 359) by isothermal titration calorimetry
Settings: read-out: Kd
pKd: −log10 of the molar value.

| compound_structure | pKd |
| --- | --- |
| O=C(O)/C=C(/CCc1ccc(Br)cc1)c1ccccc1 | 4.68 |
| O=C(O)/C=C(/CCc1ccc(C(F)(F)F)cc1)c1ccccc1 | 4.98 |
| O=C(O)/C=C(/CCc1ccc2ccccc2c1)c1ccccc1 | 4.86 |
| O=C(O)/C=C(/CCc1ccc(Cl)c(Cl)c1)c1ccccc1 | 4.86 |
| O=C(O)/C=C(/CCc1c[nH]c2ccccc12)c1ccccc1 | 5.00 |
| O=C(O)/C=C(/CCc1ccc(Cl)cc1Cl)c1ccccc1 | 5.23 |

Sourced from ChEMBL document CHEMBL1153471
